Recorded activity coefficient values for a group of compounds are listed next.
# ASSAY PROTOCOL: activity coefficient (dimensionless); of the first substance listed, at infinite dilution; xn = mol fraction of the nth substance listed
# STATED CONDITIONS: 318.2 K; Liquid; Chromatography; x1 = 0
MEASUREMENT TYPE: activity coefficient

compound="CCCOCCC [dipropyl ether] + CCCC[N+]1(C)CCCCC1.N#C[S-]" reported=35.1
compound="CCC(=O)CC [pentan-3-one] + CCCC[N+]1(C)CCCCC1.N#C[S-]" reported=3.08
compound="CCOCC [diethyl ether] + CCCC[N+]1(C)CCCCC1.N#C[S-]" reported=12
compound="CC(C)=O [acetone] + CCCC[N+]1(C)CCCCC1.N#C[S-]" reported=1.52
compound="CCCC(C)=O [pentan-2-one] + CCCC[N+]1(C)CCCCC1.N#C[S-]" reported=3.07
compound="COC(C)(C)C [2-methoxy-2-methylpropane] + CCCC[N+]1(C)CCCCC1.N#C[S-]" reported=13.1
